Target: T1, recombinant human IL4Rα-his protein (in house made) (human, UniProt P24394 26-232, limits assumed)
T1 construct: also called Human IL4Ra-his
Experiment: capture ELISA: antibody captured on anti-IgG Fc plate, biotin human IL4Rα-his detected
Measurement kind: EC50 (nM)

| Binder | Recorded number |
| --- | --- |
| mouse antibody B8G11F2B7G5E8 (antibody, V domains shown, Mouse hybridoma mAb; also called Mouse B8G11F2B7G5E8; mAb B8G11F2B7G5E8) VH: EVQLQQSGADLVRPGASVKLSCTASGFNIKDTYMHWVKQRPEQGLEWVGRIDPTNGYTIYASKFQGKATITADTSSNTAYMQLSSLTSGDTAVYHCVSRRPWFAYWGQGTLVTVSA VL: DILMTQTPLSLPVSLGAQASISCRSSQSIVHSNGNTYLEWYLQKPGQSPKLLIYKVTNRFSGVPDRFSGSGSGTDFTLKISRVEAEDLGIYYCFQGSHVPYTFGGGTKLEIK | 0.143 |
